Assay Target: muscle nicotinic acetylcholine receptor (Mus musculus)
Test Details: The compound was tested for inhibitory potency against Nicotinic acetylcholine receptor in mouse muscle.
Measurement Type: pIC50
// returns pIC50 (minus log10 of molar concentration), number only

Asked: What pIC50 value was documented for this molecule, CCCCCC1(CCO)N=N1 [2-(3-Pentyl-3H-diazirin-3-yl)-ethanol] ?
Given back: 4.48
